The measurements presented in this section are drawn from paper PMC10081510.

assay: Microsomal intrinsic clearance assay; assay type: in vitro ADME; settings: rat, pooled liver microsomes
measurement kind: microsomal CLint at 1 μM
# output: number + unit

Give the reported value of microsomal CLint at 1 μM for this record: CCn1cc(-c2cc(Cn3ccnc3)cc3c2CCN([C@@H](C)c2cc(OC)ccn2)C3=O)c(C(F)(F)F)n1
31 µL/min/mg

----------
assay: Kinetic solubility assay; format: physicochemical; settings: phosphate-buffered saline, pH 7.4
measurement kind: solubility kinetic at 1 h (µM)
// note: answer is a bare numeric in µM

molecular string	solubility kinetic at 1 h / µM
CCn1cc(-c2cc(Cn3ccnc3)cc3c2CCN([C@H](c2cc(C)ccn2)C2CC2)C3=O)c(C(F)(F)F)n1	60
CCn1cc(-c2cc(Cn3ccnc3)cc3c2CCN([C@@H](C)c2cc(OC)ccn2)C3=O)c(C(F)(F)F)n1	86

Give the reported value of solubility kinetic at 1 h for this record: CCn1cc(-c2cc(Cn3ccnc3C)cc3c2CCN([C@H](c2cc(OC)ccn2)C2CC2)C3=O)c(C(F)(F)F)n1
65

----------
test: In vivo pharmacokinetic studies; parameters: species or system CD-1 mice; settings: male, CD-1, mouse, plasma, po, 10 mg/kg
measurement kind: bioavailability

Give the reported value of bioavailability for this record: CCn1cc(-c2cc(Cn3ccnc3C)cc3c2CCN([C@H](c2cc(OC)ccn2)C2CC2)C3=O)c(C(F)(F)F)n1
12%

----------
assay: In vivo pharmacokinetic studies; design: species or system CD-1 mice; settings: male, CD-1, mouse, plasma, iv, 3 mg/kg
Catalogue of clearance values
# output: number + unit

molecular string	clearance
CCn1cc(-c2cc(Cn3ccnc3C)cc3c2CCN([C@@H](C)c2cc(OC)ccn2)C3=O)c(C(F)(F)F)n1	118 mL/min/kg

Give the reported value of clearance for this record: CCn1cc(-c2cc(Cn3ccnc3C)cc3c2CCN([C@H](c2cc(OC)ccn2)C2CC2)C3=O)c(C(F)(F)F)n1
41 mL/min/kg

Give the reported value of clearance for this record: COc1cc(CN2CCc3c(cc(Cn4ccn(C)c4=N)cc3-c3ccc(F)cc3C)C2=O)cc(OC)c1
78 mL/min/kg

Give the reported value of clearance for this record: CCn1cc(-c2cc(Cn3ccnc3)cc3c2CCN([C@H](c2cc(C)ccn2)C2CC2)C3=O)c(C(F)(F)F)n1
26 mL/min/kg

Give the reported value of clearance for this record: CCn1cc(-c2cc(Cn3ccnc3)cc3c2CCN([C@@H](C)c2cc(OC)ccn2)C3=O)c(C(F)(F)F)n1
76 mL/min/kg

Give the reported value of clearance for this record: CCn1cc(-c2cc(Cn3ccnc3C)cc3c2CCN([C@H](c2cc(C)ccn2)C2CC2)C3=O)c(C(F)(F)F)n1
25 mL/min/kg

----------
test: Microsomal intrinsic clearance assay; assay type: in vitro ADME; details: rat, pooled liver microsomes
measurement kind: half-life at 1 μM (min)
// note: answer is a bare numeric in min

Give the reported value of half-life at 1 μM for this record: CCn1cc(-c2cc(Cn3ccnc3)cc3c2CCN([C@@H](C)c2cc(OC)ccn2)C3=O)c(C(F)(F)F)n1
22

----------
This section lists Ki readings for WDR5 (Homo sapiens, UniProt P61964).

molecular string	system under test	result
CCn1cc(-c2cc(Cn3ccnc3C)cc3c2CCN([C@H](c2cc(OC)ccn2)C2CC2)C3=O)c(C(F)(F)F)n1	WDR5 (Homo sapiens, UniProt P61964)	< 0.02 nM
CCc1nccn1Cc1cc2c(c(-c3cn(C)nc3C(F)(F)F)c1)CCN(Cc1cc(OC)cc(OC)c1)C2=O	WDR5 (Homo sapiens, UniProt P61964)	0.022 nM
CCn1cc(-c2cc(Cn3ccnc3)cc3c2CCN([C@H](c2cc(C)ccn2)C2CC2)C3=O)c(C(F)(F)F)n1	WDR5 (Homo sapiens, UniProt P61964)	< 0.02 nM

Give measured Ki for CCn1cc(-c2cc(Cn3ccnc3)cc3c2CCN([C@@H](C)c2cc(OC)ccn2)C3=O)c(C(F)(F)F)n1 (WDR5 (Homo sapiens, UniProt P61964)).
< 0.02 nM
